This listing pairs molecules with measured IC50.
molecular target: Glutaminase kidney isoform, mitochondrial (Homo sapiens); test: Negative allosteric modulator activity at human wildtype KGA incubated for 5 hrs in presence of GDH and NADP by EZMTT assay
Sequence (O94925 whole entry, canonical isoform): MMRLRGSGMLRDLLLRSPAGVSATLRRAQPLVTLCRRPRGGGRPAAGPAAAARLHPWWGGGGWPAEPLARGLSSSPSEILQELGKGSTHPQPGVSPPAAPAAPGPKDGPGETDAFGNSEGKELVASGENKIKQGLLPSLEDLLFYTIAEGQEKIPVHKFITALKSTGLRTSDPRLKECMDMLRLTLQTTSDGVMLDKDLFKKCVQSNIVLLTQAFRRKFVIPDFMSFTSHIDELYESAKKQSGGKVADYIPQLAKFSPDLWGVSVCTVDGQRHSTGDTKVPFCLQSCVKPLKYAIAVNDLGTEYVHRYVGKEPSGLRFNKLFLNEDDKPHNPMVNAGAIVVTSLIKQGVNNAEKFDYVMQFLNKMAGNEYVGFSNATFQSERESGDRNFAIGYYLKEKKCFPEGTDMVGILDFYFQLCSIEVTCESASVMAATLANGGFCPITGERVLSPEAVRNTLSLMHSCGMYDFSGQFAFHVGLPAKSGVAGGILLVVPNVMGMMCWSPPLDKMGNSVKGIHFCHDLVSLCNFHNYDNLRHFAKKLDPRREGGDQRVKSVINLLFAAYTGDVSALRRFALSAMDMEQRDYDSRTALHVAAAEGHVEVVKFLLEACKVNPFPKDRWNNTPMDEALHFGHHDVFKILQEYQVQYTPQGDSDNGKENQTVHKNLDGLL
Entry rule: numbers only, all in µM.

Nc1nnc(CC[Se][Se]CCc2nnc(N)[se]2)[se]1 : 3

Lab note: next molecule to report on.
Form field: reported IC50 of `Cc1nn(CC[Se][Se]CCn2nc(C)c(Cl)c2C)c(C)c1Cl`
0.54

###

target: Thioredoxin reductase (Escherichia coli (strain K12)); assay: Negative allosteric modulator activity at Escherichia coli TrxR using DTNB as substrate preincubated for 20 mins followed by substrate addition in presence of NADPH and measured after 60 mins
Sequence (P0A9P4 whole entry): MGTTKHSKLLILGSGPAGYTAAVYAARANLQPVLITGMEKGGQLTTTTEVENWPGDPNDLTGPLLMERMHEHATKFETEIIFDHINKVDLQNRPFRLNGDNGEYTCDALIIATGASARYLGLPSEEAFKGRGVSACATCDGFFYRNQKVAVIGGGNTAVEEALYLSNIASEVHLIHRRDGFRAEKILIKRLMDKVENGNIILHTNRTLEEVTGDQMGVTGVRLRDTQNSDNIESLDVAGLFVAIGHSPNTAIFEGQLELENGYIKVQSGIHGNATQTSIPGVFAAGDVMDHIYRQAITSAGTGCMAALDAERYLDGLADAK
value-type: pIC50
pIC50 is defined as minus the log10 of a concentration measured in mol/L.

Examples with answers:
O=[N+]([O-])c1ccc2c(cnn2CC[Se][Se]CCn2ncc3cc([N+](=O)[O-])ccc32)c1 : 6.15
Nc1nnc(CC[Se][Se]CCc2nnc(N)[se]2)[se]1 : 5.40
Cc1nn(CC[Se][Se]CCn2nc(C)c(Cl)c2C)c(C)c1Cl : 6.15
Cc1nn(CC[Se][Se]CCn2nc(C)c3ccccc32)c2ccccc12 : 6.30
c1ccc(CC[Se][Se]CCc2ccccc2)cc1 : 4.89

Shifting focus to the compound that follows.
Could you share what pIC50 was measured for `O=C1c2ccccc2C(=O)N1CC[Se][Se]CCN1C(=O)c2ccccc2C1=O` , tested on Thioredoxin reductase (Escherichia coli (strain K12))?
6.15
